Item-by-item account of IC50
test system: HCT116 cells; assay: Tumor cell proliferation (Alamar Blue), HCT116; format: cell-based; details: Homo sapiens, HCT-116, 72 h, bounds given in μM

Example compounds with recorded IC50:
- Compound: "CC(C)(C)c1cc(NC(=O)Nc2ccc(-c3c(CO)cn4ncnc(N)c34)cc2)n(-c2ccc(F)cc2)n1 [Example 239]"
  Experimental target: "HCT116 cells"
  Quantity: "IC50"
  Recorded measurement: "< 1.5 µM"
- Compound: "CCOCc1cn2ncnc(N)c2c1-c1ccc(NC(=O)Nc2cc(C(F)(F)F)ccn2)cc1 [Example 218]"
  Experimental target: "HCT116 cells"
  Quantity: "IC50"
  Recorded measurement: "5 to 10 µM"
- Compound: "N#Cc1cn2ncnc(N)c2c1-c1ccc(NC(=O)Nc2cc(C(F)(F)F)ccc2F)c(F)c1 [Example 256]"
  Experimental target: "HCT116 cells"
  Quantity: "IC50"
  Recorded measurement: "< 1.5 µM"
- Compound: "COCCN(C)C(=O)c1cn2ncnc(N)c2c1-c1ccc(NC(=O)Nc2ccc(F)c(C(F)(F)F)c2)cc1 [Example 84]"
  Experimental target: "HCT116 cells"
  Quantity: "IC50"
  Recorded measurement: "5 to 10 µM"
- Compound: "COCCOCc1cn2ncnc(N)c2c1-c1ccc(NC(=O)Nc2cc(C(C)(C)C)nn2-c2ccc(F)cc2)cc1 [Example 248]"
  Experimental target: "HCT116 cells"
  Quantity: "IC50"
  Recorded measurement: "1.5 to 5 µM"
- Compound: "N#CCc1cn2ncnc(N)c2c1-c1ccc(NC(=O)Nc2cc(C(F)(F)F)ccc2F)cc1 [Example 240]"
  Experimental target: "HCT116 cells"
  Quantity: "IC50"
  Recorded measurement: "1.5 to 5 µM"

In the following, a different compound is considered.
Entry N#CCc1cn2ncnc(N)c2c1-c1ccc(NC(=O)Nc2cc(C(F)(F)F)ccn2)cc1 [Example 226] — recorded IC50 = 1.5 to 5 µM

* * *

Tested on: HCT116 cells
Assay: Tumor cell proliferation (Alamar Blue), HCT116
Assay type: cell-based
Conditions: Homo sapiens, HCT-116, 72 h, bounds given in μM
Method: Human tumor cells (e.g., HCT116 or MDA-MB-231 cells), are seeded in a Costar 96-well plate at 3.0×10^3 cells/well and grown in 150 μl of RPMI complete media (Invitrogen Corporation, Grand Island, N.Y.) containing 10% fetal bovine serum (Hyclone, Logan, Utah) at 37° C. for 16 h in an incubator with 5% CO2. […] Plates are read in a SpectraMax Gemini (Molecular Devices, Calif.) with 544 nm excitation and 590 nm emission wavelength. […]
Quantity: IC50

Solved entries (count: 6):
- Smiles code: "CNC(=O)c1cn2ncnc(N)c2c1-c1ccc(NC(=O)Nc2cc(C(F)(F)F)ccc2F)cc1"
  Experimental target: "HCT116 cells"
  Recorded measurement: "< 1.5 µM"
- Smiles code: "Nc1ncnn2cc(C(=O)NC3CC3)c(-c3ccc(NC(=O)Nc4cc(C(F)(F)F)ccc4F)cc3)c12"
  Experimental target: "HCT116 cells"
  Recorded measurement: "< 1.5 µM"
- Smiles code: "Nc1ncnn2cc(-c3nc(CO)co3)c(-c3ccc(NC(=O)Nc4cc(C(F)(F)F)ccn4)cc3)c12"
  Experimental target: "HCT116 cells"
  Recorded measurement: "1.5 to 5 µM"
- Smiles code: "Nc1ncnn2cc(-c3cnco3)c(-c3ccc(NC(=O)Nc4ccc(F)c(C(F)(F)F)c4)cc3)c12"
  Experimental target: "HCT116 cells"
  Recorded measurement: "< 1.5 µM"
- Smiles code: "N#Cc1cn2ncnc(N)c2c1-c1ccc(NC(=O)Nc2cc(F)cc(C(F)(F)F)c2)cc1"
  Experimental target: "HCT116 cells"
  Recorded measurement: "5 to 10 µM"
- Smiles code: "CC(C)(C)c1ccnc(NC(=O)Nc2ccc(-c3c(C(=O)NC4CC4)cn4ncnc(N)c34)cc2)c1"
  Experimental target: "HCT116 cells"
  Recorded measurement: "< 1.5 µM"

GET /value?item= "CNC(=O)c1cn2ncnc(N)c2c1-c1ccc(NC(=O)Nc2ccc(F)c(C(F)(F)F)c2)cc1" &field=IC50 returns 1.5 to 5 µM

"Nc1ncnn2cc(-c3nc(CN4CCOCC4)co3)c(-c3ccc(NC(=O)Nc4cc(C(F)(F)F)ccc4F)cc3)c12" yielded IC50 of < 1.5 µM
